Recorded GI50 values for a group of compounds are listed next.
- Tested on: CAKI-1
- Experiment notes: NCI tumour cell line growth inhibition, 48 h
Calls of active or inactive are those of the source. No stated cut-off is given here; in the data, active = GI50 up to about 1.1 µM and inactive = higher.
Endpoint label: GI50

[[record]]
compound = "Cc1[nH]c2ccccc2c1/C=N/NC(=O)c1cccc(I)c1"
measured_value = "18.2 µM (inactive)"

[[record]]
compound = "COc1ccc2ccccc2c1CN1CCOCCOCCN(Cc2c(OC)ccc3ccccc23)CCOCCOCC1"
measured_value = "> 100 µM (inactive)"

[[record]]
compound = "O=C1C([P+](c2ccccc2)(c2ccccc2)c2ccccc2)=C([O-])C(=Cc2ccc(Cl)c(Cl)c2)C([O-])=C1[P+](c1ccccc1)(c1ccccc1)c1ccccc1"
measured_value = "2.18 µM (inactive)"

[[record]]
compound = "NC(=O)c1nc[nH]c1/N=N/SCC(N)C(=O)O (stereo unspecified)"
measured_value = "4.21 µM (inactive)"

[[record]]
compound = "Cc1cc(C)nc(NS(=O)(=O)c2ccc(NC(=O)NC(F)(F)F)cc2)n1"
measured_value = "1.95 µM (inactive)"

[[record]]
compound = "COc1ccc2c(c1)[n+]([O-])c(C#N)c(N1CCN(c3ccc([N+](=O)[O-])cc3)CC1)[n+]2[O-]"
measured_value = "6 µM (inactive)"


----------
Recorded GI50 values for a group of molecules are listed next.
- System: HOP-92
- Experiment notes: NCI tumour cell line growth inhibition, 48 h
Activity calls are given as the source filed them. No stated cut-off is given here; in the data, active = GI50 up to about 1.1 µM and inactive = higher.
Endpoint label: GI50

[[record]]
molecule = "CCCOP1(=O)C=C(C)C(Cl)=C(C)C1 (centres undefined)"
measured_value = "18.4 µM (inactive)"

[[record]]
molecule = "Cc1cc(NS(=O)(=O)c2ccc(/N=[N+](\\[O-])c3ccc(S(=O)(=O)Nc4cc(C)on4)cc3)cc2)no1"
measured_value = "> 100 µM (inactive)"

[[record]]
molecule = "COc1cc2c(cc1C)NC(=O)/C2=C/c1c(Cl)[nH]c2cc(C)c(OC)cc12"
measured_value = "10.3 µM (inactive)"

[[record]]
molecule = "COc1ccc(/C=C/c2cc(OC)c(OCc3ccccc3)c(OC)c2)cc1"
measured_value = "89.7 µM (inactive)"

[[record]]
molecule = "CC(C)(C)c1cc(C(=O)/C=C/c2c(Cl)cccc2Cl)cc(C(C)(C)C)c1O"
measured_value = "25.8 µM (inactive)"

[[record]]
molecule = "CC1(C)C2CCC(CN)(C2)C1N (centres undefined)"
measured_value = "> 100 µM (inactive)"

[[record]]
molecule = "CC1=C(C(=O)Nc2ccccc2)C(c2ccc(C(C)C)cc2)C(C(=O)Nc2ccccc2)=C(C)N1"
measured_value = "14.2 µM (inactive)"

[[record]]
molecule = "O=C(O)CCC(NC(=O)c1ccc(CNc2nc3cc(C(F)(F)F)ccc3nc2C(=O)O)cc1)C(=O)O (centres undefined)"
measured_value = "> 100 µM (inactive)"

[[record]]
molecule = "C=CCn1c(=O)n(CC=C)c(=O)n(CC=C)c1=O"
measured_value = "> 100 µM (inactive)"

[[record]]
molecule = "Cc1c(NC(=O)c2cc([N+](=O)[O-])cc([N+](=O)[O-])c2)c(=O)n(-c2ccccc2)n1C"
measured_value = "76.9 µM (inactive)"

[[record]]
molecule = "COc1cc(-c2oc3c(OC)c(O)c(OC)c(O)c3c(=O)c2OC)cc(O)c1OC"
measured_value = "39.4 µM (inactive)"

[[record]]
molecule = "O=C(n1c2ccccc2c2nnc(S)nc21)C(F)(F)F"
measured_value = "> 100 µM (inactive)"

[[record]]
molecule = "Cc1cc(C)c2c(O)cc(-c3ccc(Cl)cc3)nc2n1"
measured_value = "9.27 µM (inactive)"

[[record]]
molecule = "OC1(c2ccc(Cl)cc2)c2c(c3ccccc3c3ccccc23)C2=NCCN21 (centres undefined)"
measured_value = "16.6 µM (inactive)"

[[record]]
molecule = "O=C(O)c1ccc(C(=O)c2ccccc2)c(C(=O)O)c1"
measured_value = "> 100 µM (inactive)"

[[record]]
molecule = "CC(C)=C[C@@H]1O[C@H](O)[C@@H]([C@H]2CC[C@@]3(C)[C@@H]4CC[C@H]5C(C)(C)C(=O)CC[C@@]56C[C@@]46CC[C@]23C)[C@@H]1O"
measured_value = "16.6 µM (inactive)"

[[record]]
molecule = "O=C(/C=C/c1ccc([N+](=O)[O-])cc1)c1ccc(NCc2nc3ccccc3[nH]2)cc1"
measured_value = "8.57 µM (inactive)"

[[record]]
molecule = "COc1ccc2ccccc2c1CN1CCOCCOCCN(Cc2c(OC)ccc3ccccc23)CCOCCOCC1"
measured_value = "> 27.9 µM (inactive)"

[[record]]
molecule = "N#CC(C#N)=C1/C(=C/C=C/C=C/C=C/c2ccc(N3CCCCC3)s2)S(=O)(=O)c2ccccc21"
measured_value = "95.9 µM (inactive)"

